molecular target: T1, cynomolgus monkey EL (cynomolgus monkey); assay: Biacore; EL captured by anti-C2-tag Ab; bivalent fit
T1 construct: Heparin extract; also called cynomolgus EL; Cynomolgus EL
propertyName: kon (M⁻¹ s⁻¹)

• 19E7 (antibody, mouse IgG2a, V domains shown, mouse IgG2a from hybridoma; also called 19E1(19E7)) VH: QVQLQQPGSVLVRPGASVKLSCKASGYTFTTYWMHWVKQRPGQGLEWIGEIHPYSGNNNNNEKFKGKATLTVDTSSSTAYVDLSRLTSEDSAVYYCARYDSNYVFAYWGQGTLVTVSA VL: QIVLTQSPAIMSASPGEGVTITCSASSSVSYMHWFQQKPGTSPKLWIYSTSNLASGVPARFSGSGSGTSYSLTISRMEAEDAATYYCQQRDSYLTFGSGTKLEVK = 55000
• 14A1 (antibody, mouse IgG1, V domains shown, mouse IgG1 from hybridoma) VH: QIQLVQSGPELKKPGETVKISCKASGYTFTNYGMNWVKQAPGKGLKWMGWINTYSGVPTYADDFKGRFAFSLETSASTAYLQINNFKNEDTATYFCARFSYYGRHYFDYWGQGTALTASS VL: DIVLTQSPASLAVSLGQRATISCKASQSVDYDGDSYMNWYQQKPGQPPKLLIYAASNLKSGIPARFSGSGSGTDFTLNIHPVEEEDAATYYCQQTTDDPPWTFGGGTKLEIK = 210000
• 16B3 (antibody, mouse IgG2a, V domains shown, mouse IgG2a from hybridoma; also called 16B3 (mouse mAb)) VH: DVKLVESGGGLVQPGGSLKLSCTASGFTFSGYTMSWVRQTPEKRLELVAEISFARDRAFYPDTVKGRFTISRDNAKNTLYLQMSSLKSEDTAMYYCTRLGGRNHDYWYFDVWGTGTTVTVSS VL: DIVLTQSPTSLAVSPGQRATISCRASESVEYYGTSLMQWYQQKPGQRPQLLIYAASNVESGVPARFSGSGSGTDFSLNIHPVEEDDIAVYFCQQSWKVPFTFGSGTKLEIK = 42000
